test system: AncSZ; assay: phosphorylation enrichment, bacterial display (enrichment ratio); higher = better substrate or ligand; peptides without Tyr show the background
EXPERIMENTAL_READOUT: phosphorylation enrichment
Numbers only.

Please review the following examples before continuing.
Request: Return phosphorylation enrichment (reported value) for this sequence: RASDYYSQQMA [GBP6_Y334_A331S]
Response: 0.891

Request: Return phosphorylation enrichment (reported value) for this sequence: GIYSGYDDAWD [POLR1C_Y36_N32I]
Response: 1.44

Request: Return phosphorylation enrichment (reported value) for this sequence: NDDDVYLSLEE [VAV2_Y142_R143L]
Response: 1.49

Request: Return phosphorylation enrichment (reported value) for this sequence: ELTAKYLNYYR [P3H4_Y181_Q186R]
Response: 0.639

Request: Return phosphorylation enrichment (reported value) for this sequence: VDTLWYKFLKR [EPM2A_Y86_F84L]
Response: 0.868

Request: Return phosphorylation enrichment (reported value) for this sequence: TEALFYTDDPA [ADPRS_Y75_T79P_YF]
Response: 1.62

Next up:
Request: Return phosphorylation enrichment (reported value) for this sequence: PKSWNYELPAT [PROM1_Y34_A31S]
Response: 2.37

====

molecular target: MERTK (UniProt Q12866); assay: phosphorylation enrichment, bacterial display (enrichment ratio); higher = better substrate or ligand; peptides without Tyr show the background
Sequence (Q12866 whole entry, looked up): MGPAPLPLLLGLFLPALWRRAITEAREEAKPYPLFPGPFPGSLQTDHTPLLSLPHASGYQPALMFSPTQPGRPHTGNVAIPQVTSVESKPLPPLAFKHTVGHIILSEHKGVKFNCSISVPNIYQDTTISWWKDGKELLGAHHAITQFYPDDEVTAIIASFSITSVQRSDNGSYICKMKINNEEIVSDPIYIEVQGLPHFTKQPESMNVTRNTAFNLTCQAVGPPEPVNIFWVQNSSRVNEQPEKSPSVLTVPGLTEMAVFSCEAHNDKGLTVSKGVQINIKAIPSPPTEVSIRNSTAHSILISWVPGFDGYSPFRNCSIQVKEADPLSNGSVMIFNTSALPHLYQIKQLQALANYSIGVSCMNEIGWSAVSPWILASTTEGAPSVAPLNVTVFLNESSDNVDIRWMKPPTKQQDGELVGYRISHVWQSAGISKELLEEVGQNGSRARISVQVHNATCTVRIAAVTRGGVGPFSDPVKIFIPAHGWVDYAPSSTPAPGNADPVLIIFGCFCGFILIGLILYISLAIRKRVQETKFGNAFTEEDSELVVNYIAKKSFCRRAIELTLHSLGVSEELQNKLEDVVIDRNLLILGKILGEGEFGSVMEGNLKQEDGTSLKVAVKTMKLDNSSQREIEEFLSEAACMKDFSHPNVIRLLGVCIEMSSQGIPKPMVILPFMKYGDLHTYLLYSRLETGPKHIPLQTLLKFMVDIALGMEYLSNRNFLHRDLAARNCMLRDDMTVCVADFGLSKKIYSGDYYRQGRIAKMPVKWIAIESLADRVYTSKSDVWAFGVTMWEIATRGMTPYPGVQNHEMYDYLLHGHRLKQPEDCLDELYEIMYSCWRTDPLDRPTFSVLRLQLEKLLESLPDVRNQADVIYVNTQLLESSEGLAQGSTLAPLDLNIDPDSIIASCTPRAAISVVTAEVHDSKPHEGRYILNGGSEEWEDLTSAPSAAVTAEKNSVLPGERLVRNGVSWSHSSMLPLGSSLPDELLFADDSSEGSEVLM
EXPERIMENTAL_READOUT: phosphorylation enrichment
Answers are plain numbers.

Please review the following examples before continuing.
Request: Return phosphorylation enrichment (reported value) for this sequence: RRSQSYNPTSG [PLEKHA2_Y185_I186N]
Response: 0.491

Request: Return phosphorylation enrichment (reported value) for this sequence: EWKQNYEESQS [MYH7_Y1460_K1459N]
Response: 0.497

Next up:
Request: Return phosphorylation enrichment (reported value) for this sequence: EQSGSYIWVLA [DLG1_Y895_P899L]
Response: 0.504

====

Please go through the items and note down their SH2 binding enrichment.
target: c-Src SH2; test: SH2 binding enrichment of the phosphorylated peptide, bacterial display (enrichment ratio); higher = better substrate or ligand; peptides without Tyr show the background;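 further: peptide library displayed on the E. coli surface as eCPX fusions, selected cells deep-sequenced, score is each peptide's frequency after selection divided by its frequency in the input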
One number for each entry.

Please review the following examples before continuing.
Request: Return SH2 binding enrichment (reported value) for this sequence: GHLFACDWISI [BEST1_Y227_Y227C_YF]
Response: 0.749

Request: Return SH2 binding enrichment (reported value) for this sequence: FGCTFYNQAIM [MCCC2_Y196_R193C]
Response: 0.534

Request: Return SH2 binding enrichment (reported value) for this sequence: ELTAKYLNYYR [P3H4_Y181_Q186R]
Response: 0.666

Request: Return SH2 binding enrichment (reported value) for this sequence: RTTIHYNFMCN [TP53_Y234_C229R_YF]
Response: 0.624

Request: Return SH2 binding enrichment (reported value) for this sequence: GFAGKYIAMVM [CYP19A1_Y441_C437Y_YF]
Response: 0.755

Request: Return SH2 binding enrichment (reported value) for this sequence: SAPDSYIRIGN [SLC38A4_Y27_G29R]
Response: 0.814

Request: Return SH2 binding enrichment (reported value) for this sequence: HFEDGYPGGSD [CTNND1_Y221_YF]
Response: 0.397

Request: Return SH2 binding enrichment (reported value) for this sequence: RKELFYKADGE [SERPINC1_Y272]
Response: 0.369

Request: Return SH2 binding enrichment (reported value) for this sequence: VTRLWYPVCFG [ITK_Y336_R335W]
Response: 0.745

Request: Return SH2 binding enrichment (reported value) for this sequence: PSRKDYETFQP [CTNND2_Y1154_YF]
Response: 0.645

Dear reader, for each entry below, please note its SH2 binding enrichment.
1. SVTCTYTPALN [TP53_Y126_S127T]
2. SLVVPYEPPEV [TP53_Y220_V216L]
3. MPVDGYISGLL [PAK6_Y81]
4. MPLTKYLKRIK [CNGB3_Y200_E199K]

Response:
1. 0.422
2. 0.696
3. 0.511
4. 0.834

Dear reader, for each entry below, please note its SH2 binding enrichment.
1. GVLDIYGFEIL [MYO1A_Y382]
2. KLADMYGGGKD [CDH1_Y876_E880K]
3. RQRTAYFSLNT [CDH1_Y68_D72N]
4. QRCYVYYYSYL [PTEN_Y176_R173C]
5. SVQVDYMKTIL [GLYATL2_Y127]

Response:
1: 0.343; 2: 0.412; 3: 0.871; 4: 0.587; 5: 0.517

====

target: Hck (UniProt P08631); assay: phosphorylation enrichment, bacterial display (enrichment ratio); higher = better substrate or ligand; peptides without Tyr show the background
Sequence (P08631 whole entry, looked up): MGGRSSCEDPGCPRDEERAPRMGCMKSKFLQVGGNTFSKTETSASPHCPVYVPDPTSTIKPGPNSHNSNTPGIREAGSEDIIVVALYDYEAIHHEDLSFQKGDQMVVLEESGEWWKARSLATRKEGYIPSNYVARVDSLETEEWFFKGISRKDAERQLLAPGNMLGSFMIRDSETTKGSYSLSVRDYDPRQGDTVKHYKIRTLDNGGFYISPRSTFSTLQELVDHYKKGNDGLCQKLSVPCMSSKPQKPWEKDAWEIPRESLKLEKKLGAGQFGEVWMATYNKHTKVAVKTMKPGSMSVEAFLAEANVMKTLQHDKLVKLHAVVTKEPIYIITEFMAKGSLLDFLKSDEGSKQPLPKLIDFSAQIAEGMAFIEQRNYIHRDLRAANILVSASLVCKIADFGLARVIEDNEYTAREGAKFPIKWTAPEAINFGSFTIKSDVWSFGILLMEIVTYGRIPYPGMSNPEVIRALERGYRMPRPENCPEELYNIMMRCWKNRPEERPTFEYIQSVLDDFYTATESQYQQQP
Please go through the items and note down their phosphorylation enrichment.
Answers are plain numbers.

Please review the following examples before continuing.
Request: Return phosphorylation enrichment (reported value) for this sequence: LNPVVYTLRNA [OR4C12_Y285]
Response: 1.27

Request: Return phosphorylation enrichment (reported value) for this sequence: VKANTYENFWP [GATM_Y100_K102N_YF]
Response: 2.1

Request: Return phosphorylation enrichment (reported value) for this sequence: HRLSTYTKMLF [CHST8_Y251]
Response: 0.744

Next up:
Request: Return phosphorylation enrichment (reported value) for this sequence: HLQDEYDFKCK [STAT1_Y170_D165H]
Response: 0.589

====

biological target: Fyn (UniProt P06241); test: phosphorylation enrichment, bacterial display (enrichment ratio); higher = better substrate or ligand; peptides without Tyr show the background
Sequence (P06241 whole entry, looked up): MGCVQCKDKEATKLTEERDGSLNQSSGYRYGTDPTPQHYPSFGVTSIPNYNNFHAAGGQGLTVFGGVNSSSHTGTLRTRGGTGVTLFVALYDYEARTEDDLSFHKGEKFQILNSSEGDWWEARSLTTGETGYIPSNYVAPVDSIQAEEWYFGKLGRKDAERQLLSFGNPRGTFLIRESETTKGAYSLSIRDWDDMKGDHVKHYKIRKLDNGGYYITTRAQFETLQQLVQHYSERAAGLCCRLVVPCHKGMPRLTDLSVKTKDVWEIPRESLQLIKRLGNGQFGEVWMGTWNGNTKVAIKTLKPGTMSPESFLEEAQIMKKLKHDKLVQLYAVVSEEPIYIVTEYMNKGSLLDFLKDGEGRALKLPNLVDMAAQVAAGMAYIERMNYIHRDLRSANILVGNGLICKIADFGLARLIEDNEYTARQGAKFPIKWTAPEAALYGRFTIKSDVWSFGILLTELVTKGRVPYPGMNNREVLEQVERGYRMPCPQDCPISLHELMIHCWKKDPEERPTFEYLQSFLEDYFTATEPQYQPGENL
The label depends only on phosphorylation enrichment: MET if it is at least 0.6, NOT MET if it is smaller.

Examples from the recorded data:
Request: Assess whether reported phosphorylation enrichment for AVEDQYFCVDC [FHL1_Y207_YF] sits at 0.6 or higher.
Response: MET

Request: Assess whether reported phosphorylation enrichment for FDDIAYIQKTL [PIK3CA_Y1021_R1023Q] sits at 0.6 or higher.
Response: NOT MET

Request: Assess whether reported phosphorylation enrichment for KKHIPCREHKS [CSNK1G2_Y206_Y206C] sits at 0.6 or higher.
Response: MET

Request: Assess whether reported phosphorylation enrichment for ELTAKYLNYYR [P3H4_Y181_Q186R] sits at 0.6 or higher.
Response: NOT MET

Request: Assess whether reported phosphorylation enrichment for ECKETYHEGEC [PRKN_Y372_A371T] sits at 0.6 or higher.
Response: MET

New cases:
Request: Assess whether reported phosphorylation enrichment for KKRSVYIKVLF [CC2D2A_Y683_L684I] sits at 0.6 or higher.
Response: NOT MET

Request: Assess whether reported phosphorylation enrichment for LNPLIYTLRNA [OR4C46_Y285_K288R] sits at 0.6 or higher.
Response: MET

Request: Assess whether reported phosphorylation enrichment for GGGGSYNNFGN [HNRNPA1_Y312_D314N] sits at 0.6 or higher.
Response: NOT MET

Request: Assess whether reported phosphorylation enrichment for SQGRQYQELPR [KCNH2_Y1009_R1005Q] sits at 0.6 or higher.
Response: NOT MET

====

test system: AncSZ; experiment: phosphorylation enrichment, bacterial display (enrichment ratio); higher = better substrate or ligand; peptides without Tyr show the background
EXPERIMENTAL_READOUT: phosphorylation enrichment
Answers are plain numbers.

Request: Return phosphorylation enrichment (reported value) for this sequence: QKFMAYLSQGW [HLCS_Y236_G241W]
Response: 1.19

Request: Return phosphorylation enrichment (reported value) for this sequence: LARNMYDKEFF [MET_Y1230_D1228N_YF]
Response: 1.03

Dear reader, for each entry below, please note its phosphorylation enrichment.
1. RRSQSYNPTSG [PLEKHA2_Y185_I186N]
2. QPDFLYDHIQP [TRRAP_Y862]

Response:
1. 0.612
2. 2.58

====

tested on: Fer (mouse); assay: phosphorylation enrichment, bacterial display (enrichment ratio); higher = better substrate or ligand; peptides without Tyr show the background
EXPERIMENTAL_READOUT: phosphorylation enrichment
One number for each entry.

Please review the following examples before continuing.
Request: Provide phosphorylation enrichment, system Fer (mouse), entry HHLSTYTKMLF [CHST8_Y251_R247H]
Response: 0.504

Request: Provide phosphorylation enrichment, system Fer (mouse), entry PSRKDYETFQP [CTNND2_Y1154_YF]
Response: 0.473

Request: Provide phosphorylation enrichment, system Fer (mouse), entry PKSWNYELPAT [PROM1_Y34_A31S]
Response: 1.06

Request: Provide phosphorylation enrichment, system Fer (mouse), entry DLITAYRAHGF [PDHA1_Y118_H113D]
Response: 0.387

Request: Provide phosphorylation enrichment, system Fer (mouse), entry QGLRLYRSHLA [BTK_Y617_P619S]
Response: 0.527

Dear reader, for each entry below, please note its phosphorylation enrichment.
1. PTKNDYWAMPA [WWOX_Y287_L291P]
2. KLSFSYGWALQ [ALDOB_Y302_R304W]
3. AGTIPYHAHLD [ASS1_Y291_L290P]

Response:
[0.469, 0.591, 0.357]

Dear reader, for each entry below, please note its phosphorylation enrichment.
1. GETEQYVGGGG [FAT4_Y4980_A4977T]
2. REVPVYTFSEP [FAM120B_Y368_D370Y_YF]
3. PDMHSYMVRFN [GRIN2D_Y732_YF]
4. GIVEDYRPRFF [ACVRL1_Y421_P424R_YF]
5. FARNCYVAGQF [G6PD_Y107_S106C_YF]
6. NRSSLYLVAGP [KIAA1614_Y1083]
7. IDQDKYAVHFI [FLNA_Y2388_R2391H]
8. RQIQSYTCEID [DES_Y331_H326R]

Response:
[0.436, 11.1, 0.494, 0.513, 0.417, 0.495, 0.625, 0.485]

Dear reader, for each entry below, please note its phosphorylation enrichment.
1. VKANTYEKYWL [GATM_Y100_P105L]
2. LNPDGYKKAYE [CPXM2_Y427_E428K]
3. ANNQRYAFMPL [TMEM87B_Y460]
4. RGSQQYRALTV [TUBB8_Y281]
5. VEDHFYEGGIG [TKT_Y564_YF]

Response:
1: 2.47; 2: 0.619; 3: 0.394; 4: 0.584; 5: 0.704

Dear reader, for each entry below, please note its phosphorylation enrichment.
1. GFKVRYATGSI [FGFR1_Y210_W213G_YF]
2. LAEMNYVHRDL [EPHB1_Y740]
3. VSTKVYKRFPS [BEST1_Y148_A146K]
4. DGTGRYLCNAC [GATA5_Y208_H207R]
5. NDDDVYLSLEE [VAV2_Y142_R143L]

Response:
0.362
0.32
0.422
0.362
0.656

Dear reader, for each entry below, please note its phosphorylation enrichment.
1. KPGVNYFFRVS
2. HFEDGYPGGSD [CTNND1_Y221_YF]
3. DDKQPYEKKAA [HMGB1_Y144]

Response:
[0.41, 0.5, 0.475]
